The measured values listed here are drawn from patent US8299096B2.

MEASUREMENT PROTOCOL: Compound plasma concentrations in mice at 15 min post administration
Assay type: in vivo, mouse
STATED CONDITIONS: mouse; mice, plasma, 15 min post administration (oral dosing), mean of n = 3 mice; read-out: Plasma Mean Concentration
Lab note: cut-off is 700 nM. Strictly less in concentration at 15 min is yes (1). Exactly 700 nM or more is no (0).

Q: Strictly below 700 nM: is that where concentration at 15 min of `COc1ccc(CN2CCC[C@H](Nc3ccc4[nH]ncc4c3)C2)cc1NS(C)(=O)=O` sits?
Ans: yes (1)

Q: Let us now turn to `CC(=O)NCc1cccc(CN2CC[C@@H](Nc3cccc4cnccc34)C2)c1`
Ans: yes (1)

Q: Repeat with `Fc1ccc(CN2CCC[C@H](Nc3ccc4[nH]ncc4c3)C2)cc1F`
Ans: no (0)

Q: Input `OCCOc1cccc(CN2CCC[C@@H](Nc3cccc4cnccc34)C2)c1`
Ans: yes (1)

Q: And then `c1cc2c(cc1CN1CCC[C@@H](Nc3ccc4[nH]ncc4c3)C1)CCO2` , what is it?
Ans: yes (1)

Q: Next: `c1cc(CN2CCC[C@@H](Nc3ccc4[nH]ncc4c3)C2)cc(C2CC2)c1`
Ans: yes (1)

Q: Same lookup for `CCOc1cccc(CN2CCC[C@@H](Nc3ccc4[nH]ncc4c3)C2)c1` , please.
Ans: no (0)

Q: Try this molecule next: `Clc1ccc(CN2CC[C@@H](Nc3cccc4cnccc34)C2)cc1`
Ans: yes (1)
